assay: yeast display, Sf9 membrane polyspecificity reagent, FACS + sequencing; frameworks hold sequencing errors

| MACROMOLECULE_SEQUENCE | polyreactivity (PSR sort gate) |
| --- | --- |
| QVQLLESGGGLVQPGGSLRLSCAASGSIFGRNVMGWYRQAPGKERELVAAISSSGGRTYYADSVKGRFTISRDNAKNNVYLQMNCLKPEDTAVYYCADRYGIKYYYWGQGTQVTVSS | high polyreactivity |
| QVQLVESGGGLVQAGGSLRLSCAASGGIFSYNDMGWYRQAPGKERELVAAISSGGGGITYYADSVKGRFTISRDNAKNTVYLQMNSLKPEDTAVYYCNVVPDFRAAYSSQYYYWGQGTQVTVSS | low polyreactivity |
| QVQLVESGGGLVQAGGSLRLSCAASGRTFGPNAMGWYRQAPGKERELVAAIRYSGGSTYYADSVKGRFTISRDNAKNTVYLQMNSLKPEDTAVYYCAADYVSYVGERGTLYVRYDYWGQGTQVTVSS | high polyreactivity |
| QVQLVESGGGLVQAGGSLRLSCAASGSTFPVYTLGWYRQAPGKERELVAAISWRGTSTYADSVKGRFTISRDNGKNNVYLQMNRLIPEDTAVYYCAAGDTRGMDYWGQGTQVTVSS | high polyreactivity |
| QVQLVESCGGLVQAGGSHRLSCDASGRIFTGYAMGWYRQAPGKERELVAAISWGGGRTYYADSVKGRFTISRDNAKNTVYLQMNSLKPEDTADYYCNRAAGGRSTPYYYWGQGTQVTVSS | high polyreactivity |
| QVQLVESGGGLVQAGGSLRLSCAASGSIFNPYTMGWYRQAPGKEREMVAAISASGGSTYYADSVKGRFTISRDNAKNTVYLQMNSLKPEDTAVYYCNVYRITRHSYNFGFDYWGQGTQVTVSS | low polyreactivity |
| QVQLVESGRGLVQAGGSLRLSCAATGLTFNQYAMGWYRQAPGKERELVAAITRVGRTYYADSVKGRFTISRDNAKNSVYLQMNSLKPEDTAVYYWGYPDVAERRGSYYWGQGTQVTVSS | high polyreactivity |
| QVQLVESGGGLVQAGGSLRLSCAASGSTLPANSMGWYRQAPGKERELVAAITITTDGSTYYADSVKGRFTISRDNAKNTVYLQMNSLKPEDTAVYYCAVARYRYHIRKMGYWGQGTQVTVSS | low polyreactivity |
| QVQLVESGGGLVQAGGSLRLSCAASGRIFNAYAMGWYRQAPGKERELVAAITDDGGTNYADSVKGRFTISRDNAKNTVYLQMNSLKPEDTAVYYCAATYLIGYYYVWEYDYWGQGTQVTVSS | low polyreactivity |
| QVQLVESGGGLVQAGGSLRLSCAASGSIFNYYGMGWYRQAPGKEREFVAAITSNGGTTYYADSVKGRFTISRDNAKNTVYLQMNSLKPEDTAVYYCADRPRYYWRGYDYWGLGTQVTVSS | high polyreactivity |
| QVKLVESGGGLVQAGGSLRLSCAASGSIFLGNAMGWYRQAPGKERELVATISSSDGSTDYADSVKGRFTISRDNAKNTVYLQMNSLKPEDTEVYYCNADYSYGTTLDYWGQGSQVTVSS | low polyreactivity |

====

assay: yeast display, Sf9 membrane polyspecificity reagent, FACS + sequencing; frameworks hold sequencing errors

| MACROMOLECULE_SEQUENCE | polyreactivity (PSR sort gate) |
| --- | --- |
| QVQLQESGGGLVQAGGSQRLSCSASGYIFYFQYMGWYRQAPGKEREFVAAISDGANTNYADSVKGRFNISRDNAKNTEYLQMNSLKPEDTAVYYCAARSFFKMYYWGQGTQVTVSS | low polyreactivity |
| QVQLVESGGGLVQAGGSLRLSCAASGSLFGDYVMGWSRQAPGKERELVAAINRGGSTYYADSVKGRFTISRDNAKNTVYLQMNSLKPEDTAVYYGAAGYPSWYYGYPYDSWGQGTQVTVSS | low polyreactivity |

====

assay: yeast display, Sf9 membrane polyspecificity reagent, FACS + sequencing; frameworks hold sequencing errors

| MACROMOLECULE_SEQUENCE | polyreactivity (PSR sort gate) |
| --- | --- |
| QVQLVESGGGLVQAGVSLRLICAASGRTFGRSVMGWYRQAPGKERELVAAITSSSSSTYADSVKGRFTISRDNAKNTVYVQMNSLKPEDTEVYYCNKRYPSRHLPEYDYWGQGTQVSVSS | high polyreactivity |
| QVQLVESGGGLVQAGGSLRLSCAAPGSIFYPNAMGWYRQAPGKEREFVAAITKRGGSTYYADSVKGRFTISRDNAKNTVYLQMNSLKPEDTAVYYCAGERSYPRAGRYNYWGQGTQVTVSS | low polyreactivity |
| QVQLVESGGGLVQAGGSLRLSCAASGRIFGYYAMGWYRQAPGKERELVAASTSSDASTYYADSVKGRFTISRDNAKNTDYLQMNSLKPEDTAVYYCNADYPTWSYYLSGYYGYWGQGTQVTVSS | low polyreactivity |
| QVQLVESGGGLVQAGGSLRLSWAASGSTFDGYAMGWYRQAPGKERELVAAITRSGGSTYYADSVKGRFTISRDNAKITVYRQINSLKPEDTEVYYSNKYGYKGCVGYDYWGKGTQVTVSS | high polyreactivity |
| QVQLVESGGGLVQAGGSLRLSCAASGFISTINVMGWYRQAPGKERELVAAITYIDGSTFYADSVKGRFTISRDNAKNTVYLQMNSLKPEDTAVYYCAADLYQWGAVFLYVRSTGLDYWGQGTQVTVSS | low polyreactivity |

====

test: yeast display, Sf9 membrane polyspecificity reagent, FACS + sequencing; frameworks hold sequencing errors

| MACROMOLECULE_SEQUENCE | polyreactivity (PSR sort gate) |
| --- | --- |
| QVQLVESGGGLVQAGGSLRLSCAASGLTFYDYAMGWYRQAPGKERELVAAISSGGSTYYADSVKGRFTISRDNAKNTVYLHMNSLKPEDTAVYYCAARPAYRVHAMGYWGQGTQVTVSS | low polyreactivity |
| QVQLVESGGGLVQAGGSLRLSCAASGITFSGNAMGWYRQAPGKERELVAAITWRGDNTYYADSVKGRFTISRDNAKNTVYLQMNSLKPEDTAVYSCAAKSPLFGLTSYPGPDDSWGQGTQVTVSS | low polyreactivity |

====

experiment: yeast display, Sf9 membrane polyspecificity reagent, FACS + sequencing; frameworks hold sequencing errors
PARAMETER_MEASURED: polyreactivity (PSR sort gate)

| MACROMOLECULE_SEQUENCE | RESULT_VALUE |
| --- | --- |
| QVQLVESGGGLVQAGGSLRLSCAASGNTFYAYTMGLYIQAPGKERELVAAISSDGSTNYADSVKGRFTISRDNAKNTVYLQMNSLKPEDTAVYYCAVTLEVSTVRDYDYWGQGTQVTVSS | low polyreactivity |
| QDQLVESGGGLVQAGGSLRLSCAASGSIFKRYAMGWYRQAPGKERELVAAISYSGGSTYYADSVKGRFTISRDNAKNTVYLQMNSLKPEDTAVYYCAAATYRQQWHYYWGQGTQVTVSS | high polyreactivity |
| QVHLVESGGGLVQAGGSLRLSCAASGFIFDPYGMGWYRQAPGKERELVAAISSRVGSTYYADSVKGRFTISRDNAKNTVYLQLNSLKPEDTAVYYCAADNDGVGYWVYEEMDYWGQGTQVTVSS | low polyreactivity |
| QVQLVESGGGLVQAGGSLRLSCAASGRTFKRKAKGWYRQAPGKEWEFVAVITGSGGSTYYADSVKGRFTISRDNAKNTVYLQMNSLKPEDTAVYYCAAALGLRSTSWGRRGGGGDYWGQGTQVTVSS | high polyreactivity |
| QVQLVESGGGLVQAGGSLRLSCAASGSILRRYAMGWYRQAPGKERELVAAINYSGGNTYYADSVKGRFTISRDNAKNTVYLQMNSLKPEDTAVYFCAAYYGPYSARYYGGYEYWGQGTQVTVSS | high polyreactivity |

====

assay: yeast display, Sf9 membrane polyspecificity reagent, FACS + sequencing; frameworks hold sequencing errors
PARAMETER_MEASURED: polyreactivity (PSR sort gate)

| MACROMOLECULE_SEQUENCE | RESULT_VALUE |
| --- | --- |
| QVQLVESGGGLVQAGGSLPLSCAASGNIFVTYDMGWYRQAPGKERELVASISWNGGSTNYADSVRGLFTISRDNAKNTVYLQMNSLKPEDTAVYYCAAEYWTSYADYRYDYWGQGTQVTVSS | low polyreactivity |
| QVQLVESGGGLVQAGGSLRLSCAASGSIFRTYAMGWYRQAPGKERELVAAITSGGSTYYADSVKGRFTISRDNAKNTVYLQMNSLKPEDTAVYYCAAVRYYRYWYYWGQGTQVTVSS | high polyreactivity |
| QVQLVETGGGLVQAGGSLRLSCAASGRIFYYNTMGWYRQAPGKERELVAAISSTASTTYADSVKGRFTISRDNAKNTVYLQMNSLKPEDTAVYYCAADHRYHWAYPRGYYYWGQGTQVTVSS | high polyreactivity |
| QVQLVESGGGLVQAGGSLRLSCAASGSTFKYYAMGWYRQAPGKEREFVASINWSGVSTYYADSVKGRFTISRDNAKNTVYLQMNSLKPEDTAVYYCAARVRGKYDYWGQGTQVTVSS | high polyreactivity |
| QVQLVESGGGLVQAGGSLRISCAASGRTFWKYAMGWYRQAPGKERELVAAITASGARTYYADSVKGRFTISRDNAKNTVYLQMNSLKPEDTAVYYCNAGSVSDRQMDYWGQGTQVTVSS | low polyreactivity |

Data provenance: the nanobody polyreactivity screen of Harvey et al. (2022)
